Assay: NCI Yeast Anticancer Drug Screen. Data for the mec2-1 strain (AID 157)
Settings: S. cerevisiae mec2-1 strain, at 50.0 µM, active compounds read high
Procedure: Growth inhibition of yeast strains with defined genetic alterations is measured as a screen for potential anti-cancer activity. Selected strains with alterations in DNA damage repair or cell cycle control were exposed to compounds and growth inhibition was measured relative to vehicle treated controls. The strain used in this assay is mec2-1
Compounds without any hit were thinned out: in the full panel of roughly 79,000, 15% have a hit. Where a SMILES comes first, the peptide text is derived from it.

{"compound": "COc1ccc(CCNC(=O)CC(C)=O)cc1", "growth inhibition, %": -40.5}
{"compound": "CCOC(=O)C1=C(Nc2ccc(Cl)cc2Cl)OCC1=O", "growth inhibition, %": -5.85}
{"compound": "CCC1=NO[C@@H](C(=O)OCc2ccccc2)[C@H]1C", "growth inhibition, %": 5.25}
{"compound": "CN(C)CCNC(=O)c1cccc2ccc(-c3ccncc3)nc12", "growth inhibition, %": 11}
{"compound": "COC(=O)C1CC=CCCC1=O (configuration not stated)", "growth inhibition, %": -10.8}
{"compound": "CCN(CC)CCNc1c(C)cccc1Cl", "growth inhibition, %": 3.5}
{"compound": "NC(Cc1cnc[nH]1)C(=O)NC(Cc1ccc(O)cc1)C(=O)O (stereo not drawn) (H-His-Tyr-OH; configuration not given here)", "growth inhibition, %": -23}
{"compound": "CC1(C)C2(SCCS2)C(C)(C)C12SCCS2", "growth inhibition, %": 3.05}
{"compound": "Cc1ccnc(N=C/C=C2/C=CC=CN2O)c1", "growth inhibition, %": -9.35}
{"compound": "CC(C)CC1OCC(C)(C)CO1", "growth inhibition, %": -12.4}
{"compound": "O=c1c2cc(S(=O)(=O)Nc3ccccc3Cl)ccc2ncn1NS(=O)(=O)c1ccc(Br)cc1", "growth inhibition, %": 1.8}
{"compound": "CNC(=S)NNC1=NCCCCN1", "growth inhibition, %": -20}

====

Entries and their growth inhibition values follow.
Assay: NCI Yeast Anticancer Drug Screen. Data for the sgs1 mgt1 strain (AID 161);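 note: 0% = growth of cultures given vehicle only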
Details: S. cerevisiae sgs1 mgt1 strain, at 50.0 µM, active compounds read high
The panel holds about 79,000 compounds, 15% with a hit somewhere; the sample as a whole holds those more often.

{"molecule": "CON(C)S(=O)(=O)c1ccc(Cl)cc1", "growth inhibition, %": -4.15}
{"molecule": "CCCCCc1cc(O)cc2c1Oc1cc(O)cc(C(=O)CCCC)c1C(=O)O2", "growth inhibition, %": 8.6}
{"molecule": "CSc1nc(NCc2ccc(Cl)cc2)c2[nH]c(C)nc2n1", "growth inhibition, %": 18.4}
{"molecule": "COc1ccc(NC(=O)C(=O)C(C(=O)c2ccccc2)C2OC(=O)c3ccccc32)c([N+](=O)[O-])c1 (stereo not given)", "growth inhibition, %": -23.2}
{"molecule": "COC(=O)C(=[N+]=[N-])C(=O)c1cccc([N+](=O)[O-])c1", "growth inhibition, %": 5.75}

====

Assay: NCI Yeast Anticancer Drug Screen. Data for the rad50 strain (AID 155);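 note: 0% = growth of vehicle-only cultures of the same strain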
Details: S. cerevisiae rad50 strain growth inhibition; at 50.0 µM; active compounds read high
The panel holds about 79,000 compounds, 15% with a hit somewhere; the sample as a whole holds those more often.
observedProperty: growth inhibition (%)

{"molecule": "O=[N+]([O-])c1ccc(Cl)cc1N/N=C/c1ccnc2ccccc12", "unitsSymbol": "%", "measValue": -53.4}
{"molecule": "CCCCC1OCCOC1C1COCCO1 (stereo not given)", "unitsSymbol": "%", "measValue": -7.25}
{"molecule": "Cn1nnc(CCCl)n1", "unitsSymbol": "%", "measValue": -5.35}
{"molecule": "O=C(O)COc1cc2c(cc1Cc1ccc3c(c1)OCO3)OCO2", "unitsSymbol": "%", "measValue": 2.5}
{"molecule": "CCc1c2cc(OC)c(OC)cc2cc2c3cc(OC)c(OC)cc3cc[n+]12 (tested in a mixture with another compound)", "unitsSymbol": "%", "measValue": -23.1}
{"molecule": "CCOC(=O)/N=[N+](\\[O-])c1ccccc1", "unitsSymbol": "%", "measValue": 64.5}
{"molecule": "Cc1cc(S(=O)(=O)Cl)ccc1Cl", "unitsSymbol": "%", "measValue": 14.6}
{"molecule": "CC(=O)OC1CCC2(C)C(CCC3(C)C2CC=C2C4CC(C)(C)CCC4(C)CCC23C)C1(C)C (stereo not given)", "unitsSymbol": "%", "measValue": 5.85}
{"molecule": "CCOC(=O)NC(=O)c1cn(CCCOC(=O)CCCCCCCCCCC(=O)OCCCn2cc(C(=O)NC(=O)OCC)c(=O)n(C)c2=O)c(=O)n(C)c1=O", "unitsSymbol": "%", "measValue": -22.3}
{"molecule": "COc1ccc(C(=O)Cc2ccc3ccccc3n2)cc1", "unitsSymbol": "%", "measValue": -4.75}
